B1: HDV Ribozyme (parent)
chain: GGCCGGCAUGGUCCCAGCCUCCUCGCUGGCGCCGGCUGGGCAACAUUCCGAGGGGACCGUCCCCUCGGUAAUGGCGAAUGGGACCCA

Variants of: B1
Assay: self-cleavage, relative activity (ratio to wild type); higher = more cleavage; co-transcriptional
Listed here: items and their measured self-cleavage.
Lab note: record just the number, no unit beside it.

Some solved cases for reference:
mutant designation: U12G G25U
self-cleavage: 0.0573
--
mutant designation: A16C A87G
self-cleavage: 0.769
--
mutant designation: G5A A83U
self-cleavage: 0.0426
--
mutant designation: C3U G6A
self-cleavage: 0.245

Query :: Name the recorded self-cleavage of the item G6U C48G in your answer.
Result :: 0.374

Query :: Specify reported self-cleavage for the variant shown: A42G G50C
Result :: 0.287

Query :: Using known records, supply self-cleavage for U27C G73A
Result :: 0.231
